- Target Desc: sigma 2 receptor (Rattus norvegicus (Rat))
- Sequence (Q5U3Y7 whole entry): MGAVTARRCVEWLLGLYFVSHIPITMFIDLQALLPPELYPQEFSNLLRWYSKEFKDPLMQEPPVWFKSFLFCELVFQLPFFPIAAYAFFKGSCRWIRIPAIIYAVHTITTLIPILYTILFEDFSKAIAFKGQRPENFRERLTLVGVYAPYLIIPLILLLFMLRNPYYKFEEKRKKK
- Condition Info: selectivity σ2 over σ1

{"columns": ["Molecule", "Ki(σ1)/Ki(σ2)"],
 "data": [
  ["FC(F)(F)c1ccc(-c2ccc3c(c2)[C@H]2C[C@H]3CCN2CCc2ccccc2)cc1 [Compound 42]", 6],
  ["C=CCOC(=O)N1CC[C@@H]2C[C@@H]1c1cc(N3CCN(C)CC3)ccc12 [Compound 37]", 5],
  ["C=CCCN1CCN(c2ccc3c(c2)[C@H]2C[C@H]3CCN2C(=O)OCc2ccccc2)CC1 [Compound 29]", 11],
  ["Clc1cccc(CN2CC[C@@H]3C[C@@H]2c2cc(N4CCCCC4)ccc23)c1 [Compound 38]", 5]
]}
